Target system: cdk2/cyclinE (Homo sapiens)
Test summary: Cyclin dependent kinase 2 assay (cdk2/cyclinE), 32P incorporation, filter plate
Test settings: retinoblastoma substrate, 12 mM ATP, 25° C., 15 minutes; read-out: Inhibition of Cdks: IC50 Cdk2/E
pIC50: −log10 of the molar value.
Documented pIC50 across a set of molecules

| Molecule | Target system | pIC50 |
| --- | --- | --- |
| O=C(Nc1ccc2cnc(Nc3ccc(N4CCNCC4)cc3)nc2n1)N1CCNCC1 [Compound 87] | cdk2/cyclinE (Homo sapiens) | < 5.30 |
| Cc1cc(NC(=O)NC(C)(C)C)nc2nc(Nc3ccc(N4CCNCC4)cc3)ncc12 [Compound 4] | cdk2/cyclinE (Homo sapiens) | < 5.30 |
| CCCN(CCC)C(=O)Nc1ccc2cnc(Nc3ccc(N4CCNCC4)cc3)nc2n1 [Compound 86] | cdk2/cyclinE (Homo sapiens) | < 5.30 |
| Cc1cc(NS(=O)(=O)N(C)C)nc2nc(Nc3ccc(N4CCNCC4)cc3)ncc12 [Compound 71] | cdk2/cyclinE (Homo sapiens) | < 5.30 |
| Cc1cc(Nc2ncc3ccc(NC(=O)Nc4ccc(Cl)cc4)nc3n2)ccc1F [Compound 47] | cdk2/cyclinE (Homo sapiens) | < 5.30 |
| O=C(Nc1nc2nc(Nc3ccc(N4CCNCC4)cc3)ncc2cc1Br)NC1CCCCC1 [Compound 55] | cdk2/cyclinE (Homo sapiens) | < 5.30 |
| Cc1cc(NC(=O)NC2CCCC2)nc2nc(Nc3ccc(N4CCNCC4)cc3)ncc12 [Compound 53] | cdk2/cyclinE (Homo sapiens) | < 5.30 |
| CCCNC(=O)Nc1cc(C)c2cnc(Nc3ccc(N4CCNCC4)cc3)nc2n1 [Compound 111] | cdk2/cyclinE (Homo sapiens) | < 5.30 |
